system: SF-268 CNS; assay: NCI tumour cell line growth inhibition, 48 h; in the data active = GI50 below about 0.43 µM; inactive = the rest
Your response should consist of one outcome taken from t for active, f for inactive

Look over these answered cases.
Request: # lookup: test call for "CCOC(=O)c1csc(NC(=O)COc2cccc(/C=C3\CSc4ccccc4C3=O)c2)n1"
Response: t

Request: Follow-up entry: "O=C(Nc1cccnc1)c1ccc2ccc3ccc(C(=O)Nc4cccnc4)nc3c2n1"
Response: t

Request: Follow-up entry: COc1ccc(/C=C2\CC(C)CC3C2=NN(c2ccccc2)C3c2ccc(OC)c(OC)c2)cc1OC (centres undefined)
Response: f

For the next question, use this compound.
Request: # lookup: test call for C/C=C(/C)C(=O)OC1C=C(CO)C(=O)C(OC(=O)C(C)(O)C(C)Cl)C1C(C)C (centres undefined)
Response: f

----------
system: ACHN renal; assay: NCI tumour cell line growth inhibition, 48 h
Quick reference: TGI of the listed items.

Request: Any idea what TGI was measured for Cc1c(C2Cc3ccccc3N2)c2ccccc2n1C (configuration not stated) ?
Response: > 100 µM

***
Request: Any idea what TGI was measured for "CCN(CC)C(=S)SS(=O)(=O)c1ccccc1[N+](=O)[O-]" ?
Response: > 78.4 µM

Request: Follow-up entry: "COc1ncnc2c1cnn2Cc1cn(CCCCO)nn1"
Response: > 100 µM

Request: Follow-up entry: "CCC[CH2][Sn]([CH2]CCC)([O]C(=O)c1cc(F)cc(F)c1)[O][Sn]([CH2]CCC)([CH2]CCC)[O]C(=O)c1cc(F)cc(F)c1"
Response: 2.83 µM

Request: Follow-up entry: COc1ccc(N2C(=O)/C(=C\c3cccc(Oc4ccccc4)c3)SC2c2ccccc2)cc1 (configuration not stated)
Response: > 100 µM

----------
tested on: MOLT-4 leukemia; test: NCI tumour cell line growth inhibition, 48 h
Where a SMILES comes first, the peptide text is derived from it. [ ]: non-standard residue; d: D form. 2Nal = N[CH](Cc1ccc2ccccc2c1)C(=O)O
test.readout: GI50

Request: Test system MOLT-4 leukemia; read-out GI50; what value for "CC(C)(C)NC/C(=C\c1ccccc1)C(=O)c1ccccc1" ?
Response: 2230 nM

Request: Follow-up entry: "O=C(Nc1cccc(Cl)c1)c1cc(N=Nc2ccc([N+](=O)[O-])cc2Cl)ccc1O"
Response: 1740 nM

Request: Follow-up entry: CC(C)C(NC(=O)C(CCCCN)NC(=O)C(Cc1c[nH]c2ccccc12)NC(=O)C(Cc1ccc(O)cc1)NC(=O)C(CS)NC(=O)C(N)Cc1ccc2ccccc2c1)C(=O)NC(CS)C(=O)NC(C(N)=O)C(C)O (stereo not drawn) (H-[2Nal]CYWKVCT-NH2; configuration not given here)
Response: > 100000 nM

----------
system: CAKI-1 renal; assay: NCI tumour cell line growth inhibition, 48 h
test.readout: TGI

Worked cases, TGI given:
Request: Any idea what TGI was measured for "C/C(CCn1[nH]c(=O)ccc1=O)=N\Nc1ccc([N+](=O)[O-])cc1[N+](=O)[O-]" ?
Response: > 100 µM

Request: Follow-up entry: "CCCN1C(=O)/C(=C/c2ccc(O)cc2)SC1=Nc1ccc(OC)cc1"
Response: 27.8 µM

Request: Follow-up entry: "NNC(=S)Nc1cccc(Cl)c1"
Response: > 100 µM

***
Request: Any idea what TGI was measured for "O=C1NC(S(=O)(=O)O)=NNC12c1ccccc1-c1ccccc12" ?
Response: > 10 µM

Request: Follow-up entry: CC(O)CN1c2ccccc2Sc2ccc(Cl)cc21 (configuration not stated)
Response: > 10 µM

Request: Follow-up entry: BrCC(Br)(c1ccccc1)c1ccccc1-c1cc(-c2ccccc2)cc(-c2ccccc2)n1 (configuration not stated)
Response: 23.4 µM

Request: Follow-up entry: "O=C(Nn1cnn2c(=O)c3ccccc3nc2c1=O)c1ccccc1"
Response: > 100 µM

Request: Follow-up entry: COC(=O)C1C(C(=O)OC)C1(Br)CBr (configuration not stated)
Response: 31.6 µM

Request: Follow-up entry: "N#CCCN(CCC#N)c1ccc(C(N=Nc2ccc(Cl)cc2)=Nc2ccc(F)cc2)cc1"
Response: > 100 µM

Request: Follow-up entry: NC(=O)C(Nc1ccc(Cl)cc1)c1cc2cc(Br)ccc2nc1Cl (configuration not stated)
Response: > 50 µM

Request: Follow-up entry: "CCCCCCN(C)Cc1ccc(OCCOc2ccc(CN(C)CCCCCC)cc2)cc1"
Response: 2.9 µM

Request: Follow-up entry: CC(=O)N/C(=C\c1ccc(/C=C(\NC(C)=O)C2=NC3C(=O)c4ccccc4C(=O)C3N2)cc1)C1=NC2C(=O)c3ccccc3C(=O)C2N1 (configuration not stated)
Response: > 100 µM

Request: Follow-up entry: "CC(C)(C)c1ccc(O)c(CN(Cc2cc(C(C)(C)C)ccc2O)C2CCCCC2)c1"
Response: > 70.1 µM

Request: Follow-up entry: "CCCCN=C1OCc2[nH][nH]c(=O)c21"
Response: > 100 µM

Origin of measurements: PubChem BioAssay (NCI)
